- System: 16 HPV-positive HNSCC and cervical squamous cancer cell lines
- method: High-throughput drug screen (HTDS), cell death by AOC_LD, HPV-positive cell lines
- Format: cell-based
- particulars: resistant = AOC_LD 0
test_readout: HPV positive Resistant (number of cell lines)
Give the value as a plain number.

Cc1nc(N)sc1-c1ccnc(Nc2ccc(N3CCOCC3)cc2)n1 ... 7

# input for lookup
Quick one: HPV positive Resistant (number of cell lines) for Nc1nc(F)nc2c1ncn2[C@@H]1O[C@H](CO)[C@@H](O)[C@@H]1O ? 13

---

- System: 16 HPV-positive HNSCC and cervical squamous cancer cell lines
- method: High-throughput drug screen (HTDS), cell death by AOC_LD, HPV-positive cell lines
- Assay type: cell-based
- particulars: sensitive = AOC_LD greater than 0
Where HPV positive Sensitive (number of cell lines) equals or exceeds 8, the correct label is True; where it does not, the label is False.

COc1cc2c(c(OC)c1OC)-c1ccc(OC)c(=O)cc1[C@@H](NC(C)=O)CC2 ... True
COc1cc(NS(C)(=O)=O)ccc1Nc1c2ccccc2nc2ccccc12 ... True
COC(=O)c1ccc2c(c1)NC(=O)/C2=C(\Nc1ccc(N(C)C(=O)CN2CCN(C)CC2)cc1)c1ccccc1 ... False

Determine whether measured HPV positive Sensitive (number of cell lines) meets or exceeds 8 for Nc1nc(F)nc2c1ncn2[C@@H]1O[C@H](CO)[C@@H](O)[C@@H]1O False

Determine whether measured HPV positive Sensitive (number of cell lines) meets or exceeds 8 for CCn1cc(-c2ccnc3[nH]c(-c4cccc(CN(C)C)c4)cc23)c(-c2ccc(NC(=O)N(C)C)cc2)n1 True

Determine whether measured HPV positive Sensitive (number of cell lines) meets or exceeds 8 for Cc1cc(Nc2cc(N3CCN(C)CC3)nc(Sc3ccc(NC(=O)C4CC4)cc3)n2)[nH]n1 True

Determine whether measured HPV positive Sensitive (number of cell lines) meets or exceeds 8 for Cc1nc(N)sc1-c1ccnc(Nc2ccc(N3CCOCC3)cc2)n1 True

Determine whether measured HPV positive Sensitive (number of cell lines) meets or exceeds 8 for Clc1ccc(C2(c3ccc(-c4cn[nH]c4)cc3)CCNCC2)cc1 False

Determine whether measured HPV positive Sensitive (number of cell lines) meets or exceeds 8 for COc1cc([C@@H]2c3cc4c(cc3[C@@H](O[C@@H]3O[C@@H]5CO[C@@H](C)O[C@H]5[C@H](O)[C@H]3O)[C@H]3COC(=O)[C@H]23)OCO4)cc(OC)c1O [ETOPOSIDE] True

---

Let's look at some compounds and their measured HPV positive Resistant (number of cell lines).
- Test system: 16 HPV-positive HNSCC and cervical squamous cancer cell lines
- method: High-throughput drug screen (HTDS), cell death by AOC_LD, HPV-positive cell lines
- Format: cell-based
- particulars: resistant = AOC_LD 0
- Text: The concordance correlation coefficient was computed to assess the reproducibility of the normalized growth rates of the 2 replicates. […] A chi-square test was applied to compare drug classification and the cluster membership. The Fisher exact test was applied to compare mutations status (wild-type and mutant) and drugs' response data (sensitive and resistant). […]

Past entries and their recorded results:
COc1cc2c(Nc3ccc(NC(=O)c4ccccc4)cc3)ncnc2cc1OCCCN1CCOCC1 ... 6
COc1cc(Nc2ncc3c(n2)-c2ccc(Cl)cc2C(c2c(F)cccc2OC)=NC3)ccc1C(=O)O ... 6
CC(=O)NCC(=O)N1[C@@H]2CC[C@H]1c1ccc(Nc3ncc(C(F)(F)F)c(NC4CCC4)n3)cc12 ... 8

Quick one: HPV positive Resistant (number of cell lines) for CC(C)C[C@H](NC(=O)[C@H](CCc1ccccc1)NC(=O)CN1CCOCC1)C(=O)N[C@@H](Cc1ccccc1)C(=O)N[C@@H](CC(C)C)C(=O)[C@@]1(C)CO1 ? 0

---

- Tested on: 17 HPV-negative HNSCC and cervical squamous cancer cell lines
- method: High-throughput drug screen (HTDS), cell death by AOC_LD, HPV-negative cell lines
- Format: cell-based
- particulars: sensitive = AOC_LD greater than 0
Let's look at some compounds and their measured HPV negative Sensitive (number of cell lines).
Give the value as a plain number.

Past entries and their recorded results:
COc1cc(NS(C)(=O)=O)ccc1Nc1c2ccccc2nc2ccccc12 ... 2
CNC(=O)c1ccccc1Sc1ccc2c(/C=C/c3ccccn3)n[nH]c2c1 ... 1
Nc1nc(Nc2ccc(S(N)(=O)=O)cc2)nn1C(=O)c1c(F)cccc1F ... 6
O=C(Nc1cccc(Cl)c1)Nc1ncc(CCNc2ncnc3ccsc23)s1 ... 2
COc1cc(Nc2ncc3c(n2)-c2ccc(Cl)cc2C(c2c(F)cccc2OC)=NC3)ccc1C(=O)O ... 1
CN1CCN(c2ccc3nc(-c4c(N)c5c(F)cccc5[nH]c4=O)[nH]c3c2)CC1 ... 1
O=C(Nc1c[nH]nc1-c1nc2ccc(CN3CCOCC3)cc2[nH]1)NC1CC1 ... 7
Nc1nc(F)nc2c1ncn2[C@@H]1O[C@H](CO)[C@@H](O)[C@@H]1O ... 11

HPV negative Sensitive (number of cell lines) of Cc1cc(Nc2cc(N3CCN(C)CC3)nc(Sc3ccc(NC(=O)C4CC4)cc3)n2)[nH]n1 on 17 HPV-negative HNSCC and cervical squamous cancer cell lines? 2

HPV negative Sensitive (number of cell lines) of COc1cc2c(Nc3ccc(NC(=O)c4ccccc4)cc3)ncnc2cc1OCCCN1CCOCC1 on 17 HPV-negative HNSCC and cervical squamous cancer cell lines? 3

HPV negative Sensitive (number of cell lines) of COc1cc2c(c(OC)c1OC)-c1ccc(OC)c(=O)cc1[C@@H](NC(C)=O)CC2 on 17 HPV-negative HNSCC and cervical squamous cancer cell lines? 10

HPV negative Sensitive (number of cell lines) of CC(C)C[C@H](NC(=O)[C@H](CCc1ccccc1)NC(=O)CN1CCOCC1)C(=O)N[C@@H](Cc1ccccc1)C(=O)N[C@@H](CC(C)C)C(=O)[C@@]1(C)CO1 on 17 HPV-negative HNSCC and cervical squamous cancer cell lines? 12

---

- Tested on: 16 HPV-positive HNSCC and cervical squamous cancer cell lines
- method: High-throughput drug screen (HTDS), cell death by AOC_LD, HPV-positive cell lines
- Assay type: cell-based
- particulars: sensitive = AOC_LD greater than 0
Let's look at some compounds and their measured HPV positive Sensitive (number of cell lines).
Give the value as a plain number.

Past entries and their recorded results:
CC(C)C[C@H](NC(=O)[C@H](CCc1ccccc1)NC(=O)CN1CCOCC1)C(=O)N[C@@H](Cc1ccccc1)C(=O)N[C@@H](CC(C)C)C(=O)[C@@]1(C)CO1 [CARFILZOMIB] ... 16
COc1ccc(-c2ccc3c(N4CCOC[C@@H]4C)nc(N4CCOC[C@@H]4C)nc3n2)cc1CO [AZD8055] ... 5
COc1cc2c(Nc3ccc(NC(=O)c4ccccc4)cc3)ncnc2cc1OCCCN1CCOCC1 [ZM447439] ... 10

# input for lookup
HPV positive Sensitive (number of cell lines) of O=C(Nc1cccc(Cl)c1)Nc1ncc(CCNc2ncnc3ccsc23)s1 [SNS314] on 16 HPV-positive HNSCC and cervical squamous cancer cell lines? 8

---

- Tested on: 16 HPV-positive HNSCC and cervical squamous cancer cell lines
- method: High-throughput drug screen (HTDS), cell death by AOC_LD, HPV-positive cell lines
- Format: cell-based
- particulars: resistant = AOC_LD 0
test_readout: HPV positive Resistant (number of cell lines)
Give the value as a plain number.

CNC(=O)c1ccccc1Sc1ccc2c(/C=C/c3ccccn3)n[nH]c2c1 ... 8

Quick one: HPV positive Resistant (number of cell lines) for O=C(Nc1c[nH]nc1-c1nc2ccc(CN3CCOCC3)cc2[nH]1)NC1CC1 ? 3

Quick one: HPV positive Resistant (number of cell lines) for COc1ccc(-c2ccc3c(N4CCOC[C@@H]4C)nc(N4CCOC[C@@H]4C)nc3n2)cc1CO ? 11

Quick one: HPV positive Resistant (number of cell lines) for CCCCCCOC(=O)[C@]1(O)C[C@@H]2O[C@@]1(C)n1c3ccccc3c3c4c(c5c6ccccc6n2c5c31)C(=O)NC4 ? 12

Quick one: HPV positive Resistant (number of cell lines) for O=C(Nc1cccc(Nc2ncc(Br)c(NCCc3cnc[nH]3)n2)c1)N1CCCC1 ? 8

---

Let's look at some molecules and their measured HPV positive Resistant (number of cell lines).
- Test system: 16 HPV-positive HNSCC and cervical squamous cancer cell lines
- method: High-throughput drug screen (HTDS), cell death by AOC_LD, HPV-positive cell lines
- Format: cell-based
- particulars: resistant = AOC_LD 0
- Source text: The concordance correlation coefficient was computed to assess the reproducibility of the normalized growth rates of the 2 replicates. […] A chi-square test was applied to compare drug classification and the cluster membership. The Fisher exact test was applied to compare mutations status (wild-type and mutant) and drugs' response data (sensitive and resistant). […]
Give the value as a plain number.

Past entries and their recorded results:
CN1CCN(c2ccc3nc(-c4c(N)c5c(F)cccc5[nH]c4=O)[nH]c3c2)CC1 ... 10
Nc1nc(Nc2ccc(S(N)(=O)=O)cc2)nn1C(=O)c1c(F)cccc1F ... 4
Clc1ccc(C2(c3ccc(-c4cn[nH]c4)cc3)CCNCC2)cc1 ... 12

# input for lookup
Quick one: HPV positive Resistant (number of cell lines) for COc1cc(NS(C)(=O)=O)ccc1Nc1c2ccccc2nc2ccccc12 ? 5
